Below are compounds with their IC50 as measured on Sodium-dependent dopamine transporter (Rattus norvegicus).
Sequence (P23977 whole entry): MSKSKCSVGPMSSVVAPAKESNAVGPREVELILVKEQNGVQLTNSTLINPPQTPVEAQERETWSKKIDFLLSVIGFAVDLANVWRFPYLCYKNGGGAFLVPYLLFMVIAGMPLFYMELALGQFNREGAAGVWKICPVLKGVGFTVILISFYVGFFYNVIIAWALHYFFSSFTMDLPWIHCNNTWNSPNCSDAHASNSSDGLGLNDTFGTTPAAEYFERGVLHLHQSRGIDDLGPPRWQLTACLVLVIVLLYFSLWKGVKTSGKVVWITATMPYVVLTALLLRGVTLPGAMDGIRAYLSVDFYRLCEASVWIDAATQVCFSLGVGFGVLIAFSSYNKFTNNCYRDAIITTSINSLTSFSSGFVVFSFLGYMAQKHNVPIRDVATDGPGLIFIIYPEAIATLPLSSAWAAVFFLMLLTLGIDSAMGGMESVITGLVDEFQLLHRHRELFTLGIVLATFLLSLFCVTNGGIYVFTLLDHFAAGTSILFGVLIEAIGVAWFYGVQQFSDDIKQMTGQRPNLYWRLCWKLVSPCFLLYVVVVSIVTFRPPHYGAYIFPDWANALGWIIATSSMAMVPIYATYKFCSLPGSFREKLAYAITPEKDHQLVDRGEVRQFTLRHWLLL

COMPOUND	INEQUALITY_SIGN	IC50 (nM)
CCOC(=O)C1C(c2ccc(-c3c(C)ccn3C)cc2)CC2CCC1N2C (stereo not drawn)	>	1000
CCOC(=O)C1C2CCC(CC1c1ccc(-c3cccn3Cc3ccccc3)cc1)N2 (stereo not drawn)	=	32.2
CCOC(=O)C1C(c2ccc(-c3cccn3CC)cc2)CC2CCC1N2C (stereo not drawn)	>	1000
CCOC(=O)C1C2CCC(CC1c1ccc(-c3cccn3C)cc1)N2 (stereo not drawn)	=	614
CCOC(=O)C1C2CCC(CC1c1ccc3c(ccn3CC)c1)N2 (stereo not drawn)	=	2.37
CCOC(=O)C1C2CCC(CC1c1ccc(-c3ccc(C)n3C)cc1)N2 (stereo not drawn)	=	825
CCOC(=O)C1C(c2ccc3c(ccn3C)c2)CC2CCC1N2C (stereo not drawn)	=	0.75
CCOC(=O)C1C(c2ccc3c(ccn3CC)c2)CC2CCC1N2C (stereo not drawn)	=	1.2
CCOC(=O)C1C2CCC(CC1c1ccc(-c3ccc(-c4ccccc4)n3C)cc1)N2 (stereo not drawn)	>	1000
CCOC(=O)C1C(c2ccc(-c3cccn3Cc3ccccc3)cc2)CC2CCC1N2C (stereo not drawn)	=	58
CCOC(=O)C1C2CCC(CC1c1ccc3c(ccn3C)c1)N2 (stereo not drawn)	=	2.73
CCOC(=O)C1C2CCC(CC1c1ccc(-c3cccn3CC)cc1)N2 (stereo not drawn)	>	1000
CCOC(=O)C1C(c2ccc(-c3cccn3C)cc2)CC2CCC1N2C (stereo not drawn)	=	703
